Reference source for all entries: ChEMBL document CHEMBL1134017

Assay system UniProt:P09237; read-out recorded as IC50.
value_kind: IC50 (nM)

1 = COc1ccc(S(=O)(=O)N2CCN(Cc3ccccc3)C(=O)C[C@@H]2C(=O)NO)cc1
2 = COc1ccc(S(=O)(=O)N2CCN(C(C)C)C(=O)C[C@@H]2C(=O)NO)cc1
3 = COc1ccc(S(=O)(=O)N2CN(C(C)C)C(=O)C[C@@H]2C(=O)NO)cc1
## Task Descending sort on IC50 required. Reply with the item labels sorted in the order that was asked for.
## Result 3, 2, 1
(3: 3460 nM, 2: 369 nM, 1: 88 nM)

----------
- tested_target: Matrilysin (Homo sapiens, UniProt P09237)
- Sequence (P09237 whole entry): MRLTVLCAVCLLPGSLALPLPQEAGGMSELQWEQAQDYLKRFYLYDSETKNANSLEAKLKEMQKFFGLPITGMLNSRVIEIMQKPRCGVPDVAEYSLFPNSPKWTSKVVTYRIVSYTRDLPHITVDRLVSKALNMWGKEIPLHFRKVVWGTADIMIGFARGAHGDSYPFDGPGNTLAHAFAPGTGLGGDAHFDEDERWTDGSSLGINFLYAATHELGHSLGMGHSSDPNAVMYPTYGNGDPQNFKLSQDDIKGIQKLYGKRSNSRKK
pIC50: −log10 of the molar value.
value_kind: pIC50

COc1ccc(S(=O)(=O)N2CN(C3CCCCC3)C(=O)C[C@@H]2C(=O)NO)cc1 = 6.11

1 = COc1ccc(S(=O)(=O)N2CN(C(C)(C)C)C(=O)C[C@@H]2C(=O)NO)cc1
2 = COCCN1CN(S(=O)(=O)c2ccc(OC)cc2)[C@@H](C(=O)NO)CC1=O
## Task Of 1 and 2 , which shows the smaller pIC50 value? Select an item and report its label.
## Result 2
(2: 5.00, 1: 6.04)
